- MEASURED TARGET: Bem1-1, P29366
- Sequence (P29366 55-141): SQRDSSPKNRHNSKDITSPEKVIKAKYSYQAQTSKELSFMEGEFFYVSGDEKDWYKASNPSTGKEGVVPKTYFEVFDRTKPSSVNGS
- ASSAY PROTOCOL: SPOT array
- CONDITION DESCRIPTION: median of control spots 4282
MEASURED ATTRIBUTE: SPOT intensity

# example entries with known answers
> print(dat)
            binder  measured.attribute  measured.result
1  TYNRTAFQIPGDQSI      SPOT intensity                0
2  QPQRTAPKPPISAPR      SPOT intensity                0
3  QGYPRQPQRPQRYHP      SPOT intensity                0
4  RTIRKLPLMSLSEYF      SPOT intensity                0
5  SKSRLLIELPEGFFT      SPOT intensity                0

[P] DRIRMFIRFPKFLLE
[Q] TIRRRAPLSLLESHT
[R] KRKRFNLLLPKPYLT
[S] QLMKNLPKIPLLNDI
## Input Hey, can you sort those binders up there by SPOT intensity, smallest first? Thanks in advance for listing the labels in the requested order.
## Output P, Q, R, S
(P: 0, Q: 2, R: 3, S: 5)
